Tested on: Stenotrophomonas maltophilia
TEST_DETAILS: Antimicrobial activity against Stenotrophomonas maltophilia after 18 to 24 hrs by broth microdilution method
Format: functional
Please respond with 1 when measured MIC is strictly beneath 8 mg/L, and with 0 in all other cases.

- MOLECULE: "Cc1cc(N2CCCCC2)nc(SCc2nc3ccccc3[nH]2)n1"
  CLASS_NAME: 0
- MOLECULE: "COc1ccc(Nc2cc(C)nc(SCc3nc4ccccc4[nH]3)n2)cc1"
  CLASS_NAME: 0
- MOLECULE: "Cc1cc(Nc2ccc(Cl)cc2)nc(SCc2nc3ccccc3[nH]2)n1"
  CLASS_NAME: 1
- MOLECULE: "Cc1cc(N2CCOCC2)nc(SCc2nc3ccccc3[nH]2)n1"
  CLASS_NAME: 0
- MOLECULE: "Cc1cc(Nc2ccc(F)cc2)nc(SCc2nc3ccccc3[nH]2)n1"
  CLASS_NAME: 0
- MOLECULE: "C[C@H]1COc2c(N3CCN(C)CC3)c(F)cc3c(=O)c(C(=O)O)cn1c23.C[C@H]1COc2c(N3CCN(C)CC3)c(F)cc3c(=O)c(C(=O)O)cn1c23.O [LEVOFLOXACIN]"
  CLASS_NAME: 1
- MOLECULE: "Cc1cc(Nc2ccc(Br)cc2)nc(SCc2nc3ccccc3[nH]2)n1"
  CLASS_NAME: 1
- MOLECULE: "Cc1cc(NNC(N)=S)nc(SCc2nc3ccccc3[nH]2)n1"
  CLASS_NAME: 0
- MOLECULE: "Cc1cc(NC(C)C)nc(SCc2nc3ccccc3[nH]2)n1"
  CLASS_NAME: 0
- MOLECULE: "Cc1cc(N(CCO)CCO)nc(SCc2nc3ccccc3[nH]2)n1"
  CLASS_NAME: 0
- MOLECULE: "Cc1cc(N(C)Cc2ccccc2)nc(SCc2nc3ccccc3[nH]2)n1"
  CLASS_NAME: 0
- MOLECULE: "Cc1cc(NCCO)nc(SCc2nc3ccccc3[nH]2)n1"
  CLASS_NAME: 0
- MOLECULE: "Cc1cc(N2CCNCC2)nc(SCc2nc3ccccc3[nH]2)n1"
  CLASS_NAME: 0

---

System: Staphylococcus aureus
TEST_DETAILS: Antimicrobial activity against Staphylococcus aureus after 18 to 24 hrs by broth microdilution method
Type: functional
Below, each entry is listed with its recorded MIC.
OUTCOME_MEASURE: MIC

- STRUCTURE_STRING: "Cc1cc(Nc2cccc(C(F)(F)F)c2)nc(SCc2nc3ccccc3[nH]2)n1"
  ASSAYED_TARGET: "Staphylococcus aureus"
  READING: "> 128 µg/mL"
- STRUCTURE_STRING: "Cc1cc(Nc2ccc(Br)cc2)nc(SCc2nc3ccccc3[nH]2)n1"
  ASSAYED_TARGET: "Staphylococcus aureus"
  READING: "16 µg/mL"
- STRUCTURE_STRING: "Cc1cc(NCCO)nc(SCc2nc3ccccc3[nH]2)n1"
  ASSAYED_TARGET: "Staphylococcus aureus"
  READING: "> 128 µg/mL"
- STRUCTURE_STRING: "Cc1cc(N2CCNCC2)nc(SCc2nc3ccccc3[nH]2)n1"
  ASSAYED_TARGET: "Staphylococcus aureus"
  READING: "> 128 µg/mL"
- STRUCTURE_STRING: "Cc1cc(N(C)Cc2ccccc2)nc(SCc2nc3ccccc3[nH]2)n1"
  ASSAYED_TARGET: "Staphylococcus aureus"
  READING: "128 µg/mL"
- STRUCTURE_STRING: "Cc1cc(N2CCOCC2)nc(SCc2nc3ccccc3[nH]2)n1"
  ASSAYED_TARGET: "Staphylococcus aureus"
  READING: "> 128 µg/mL"

---

Some compounds, each annotated with its measured MIC.
Tested on: Staphylococcus aureus
TEST_DETAILS: Antimicrobial activity against Staphylococcus aureus after 18 to 24 hrs by broth microdilution method
Format: functional

- STRUCTURE_STRING: "Cc1ccc(Nc2cc(C)nc(SCc3nc4ccccc4[nH]3)n2)cc1"
  OP: "="
  MIC / µg/mL: 32
- STRUCTURE_STRING: "Cc1cc(Nc2ccc(Cl)cc2)nc(SCc2nc3ccccc3[nH]2)n1"
  OP: "="
  MIC / µg/mL: 8
- STRUCTURE_STRING: "C[C@H]1COc2c(N3CCN(C)CC3)c(F)cc3c(=O)c(C(=O)O)cn1c23.C[C@H]1COc2c(N3CCN(C)CC3)c(F)cc3c(=O)c(C(=O)O)cn1c23.O"
  OP: "="
  MIC / µg/mL: 0.5
- STRUCTURE_STRING: "Cc1cc(NC(C)C)nc(SCc2nc3ccccc3[nH]2)n1"
  OP: ">"
  MIC / µg/mL: 128
- STRUCTURE_STRING: "Cc1cc(Nc2ccc(F)cc2)nc(SCc2nc3ccccc3[nH]2)n1"
  OP: "="
  MIC / µg/mL: 32
- STRUCTURE_STRING: "COc1ccccc1Nc1cc(C)nc(SCc2nc3ccccc3[nH]2)n1"
  OP: ">"
  MIC / µg/mL: 128
- STRUCTURE_STRING: "Cc1cc(N2CCCCC2)nc(SCc2nc3ccccc3[nH]2)n1"
  OP: ">"
  MIC / µg/mL: 128
- STRUCTURE_STRING: "Cc1cc(NNC(N)=S)nc(SCc2nc3ccccc3[nH]2)n1"
  OP: ">"
  MIC / µg/mL: 128
- STRUCTURE_STRING: "Cc1cc(N(CCO)CCO)nc(SCc2nc3ccccc3[nH]2)n1"
  OP: ">"
  MIC / µg/mL: 128
- STRUCTURE_STRING: "COc1ccc(Nc2cc(C)nc(SCc3nc4ccccc4[nH]3)n2)cc1"
  OP: "="
  MIC / µg/mL: 64

---

MIC reference
Test system: Stenotrophomonas maltophilia
TEST_DETAILS: Antimicrobial activity against Stenotrophomonas maltophilia after 18 to 24 hrs by broth microdilution method
Type: functional

- STRUCTURE_STRING: "Cc1cc(Nc2cccc(C(F)(F)F)c2)nc(SCc2nc3ccccc3[nH]2)n1"
  ASSAYED_TARGET: "Stenotrophomonas maltophilia"
  RESULT_UNITS: "µg/mL"
  MIC: 8
- STRUCTURE_STRING: "COc1ccccc1Nc1cc(C)nc(SCc2nc3ccccc3[nH]2)n1"
  ASSAYED_TARGET: "Stenotrophomonas maltophilia"
  RESULT_UNITS: "µg/mL"
  MIC: 8
- STRUCTURE_STRING: "Cc1ccc(Nc2cc(C)nc(SCc3nc4ccccc4[nH]3)n2)cc1"
  ASSAYED_TARGET: "Stenotrophomonas maltophilia"
  RESULT_UNITS: "µg/mL"
  MIC: 8
